- Test system: pAKT^S473 (PI3K signalling) in T cell lymphoblasts
- experiment: pAKT^S473 expression in T cell lymphoblast cultures by flow cytometry, with and without OKT3 activation
- Assay type: cell-based, human
- assay-conditions: Homo sapiens, T-cell, T lymphoblasts from 3 APDS2 patients, OKT3 +; read-out: Range of IC50, inhibition of pAKT^S473 expression
pIC50: −log10 of the molar value.
assay-metric: pIC50

Prompt line: Which pIC50 value belongs to [O-][n+]1cccc(-c2nc3c(Cl)cccc3cc2[C@@H](Nc2ncnc3cccnc23)C(F)(F)F)c1 [Compound (A)] ?
Response line: 7.48 to 7.68
